From: ChEMBL document CHEMBL3098104

Some compounds, each annotated with its measured selectivity ratio.
# protocol.details: Selectivity index, ratio of CC50 for human MT4 cells to EC50 for HIV1 3B infected in human MT4 cells
# Format: toxicity, cell-based
# condition.summary: read-out: Ratio CC50/EC50

# structure, selectivity ratio
measured = [
    ("O=C1Nc2ccc(Cl)cc2[C@@](C#CC2CC2)(C(F)(F)F)O1", "> 855"),
    ("COC(=O)c1ccc(CN2CCC(Nc3cc(Oc4c(C)cc(C#N)cc4C)ccc3[N+](=O)[O-])CC2)cc1", "≥ 1210"),
    ("CC(C)Nc1cccnc1N1CCN(C(=O)c2cc3cc(NS(C)(=O)=O)ccc3[nH]2)CC1", "> 277"),
    ("Cc1cc(C#N)cc(C)c1Oc1ccc([N+](=O)[O-])c(NC2CCN(Cc3ccc(S(C)(=O)=O)cc3)CC2)c1", "> 10800"),
    ("O=c1[nH]cnc2c1ncn2[C@H]1CC[C@@H](CO)O1", "> 11"),
]
